# reported Pre-emergence action against POLCO in %; entries follow
tested on: Polygonum convolvulus (POLCO); test: Pre-emergence herbicidal action against POLCO; assay type: in vivo; conditions: dosage 320 g/ha
Answer by giving the amount and then stating its unit.

// worked examples, Pre-emergence action against POLCO in % included
MOLECULE: COC(=O)[C@@H](C)Oc1nn(-c2ncccc2F)c(-c2ccc(F)nc2)c1I
OBSERVABLE: Pre-emergence action against POLCO in %
READOUT_VALUE: 100%
//
MOLECULE: O=C(O)COc1nn(-c2ncccc2C(F)(F)F)c(-c2ccc(F)nc2)c1Br
OBSERVABLE: Pre-emergence action against POLCO in %
READOUT_VALUE: 90%
//
MOLECULE: COC(=O)[C@@H](C)Oc1nn(-c2ncccc2F)c(-c2ccc(F)nc2)c1C1CC1
OBSERVABLE: Pre-emergence action against POLCO in %
READOUT_VALUE: 100%
//
MOLECULE: C[C@@H](Oc1nn(-c2nc(F)ccc2F)c(-c2cncc(F)c2)c1Br)C(=O)O
OBSERVABLE: Pre-emergence action against POLCO in %
READOUT_VALUE: 90%

Input: Return value of Pre-emergence action against POLCO in % for input `CCOC(=O)COc1nn(-c2ncccc2C(F)(F)F)c(-c2cncc(F)c2)c1I` , no commentary.
Output: 90%

Input: Look up and report measured Pre-emergence action against POLCO in % for this entry: O=C(COc1nn(-c2ccccn2)c(-c2ccc(F)nc2)c1Br)OCC1CCOC1 (stereo not shown)
Output: 90%

Input: Provide only the value of recorded Pre-emergence action against POLCO in % for `CCOC(=O)CNC(=O)COc1nn(-c2ncccc2F)c(-c2ccc(OC)nc2)c1Br`
Output: 90%
